Test system: Fibroblast
Assay: Multiplex assay against human fibroblast
Type: toxicity, cell-based
Conditions: 12 h, 1 µM, compound concentration 1 uM, replicate 2
measured_property: Population Membrane Permeable-Phenotype (%)

>  <compound>
CCn1c(-c2nonc2N)nc2cnc(Oc3cccc(NC(=O)c4ccc(OCCN5CCOCC5)cc4)c3)cc21 [GSK-269962A]

>  <recorded_number>
14

$$$$
>  <compound>
Cc1nc(Cc2cccc(C(F)(F)F)c2)sc1-c1ccc(C(N)=O)nc1 [TP-024n]

>  <recorded_number>
2

$$$$
>  <compound>
CN(C)CCOc1ccc(-c2nc(-c3ccncc3)c(-c3ccc4c(c3)CC/C4=N\O)[nH]2)cc1 [SB590885]

>  <recorded_number>
10

$$$$
>  <compound>
CN(C)C/C=C/C(=O)Nc1cc2c(Nc3ccc(F)c(Cl)c3)ncnc2cc1O[C@H]1CCOC1.O=C(O)/C=C\C(=O)O.O=C(O)/C=C\C(=O)O [AFATINIB DIMALEATE]

>  <recorded_number>
7

$$$$
>  <compound>
CNC(=O)c1nn(C)c2c1C(C)(C)Cc1cnc(Nc3ccc(N4CCN(C)CC4)cc3)nc1-2 [MILCICLIB]

>  <recorded_number>
13

$$$$
>  <compound>
CCc1cc2c(cc1CC)CC(NC[C@H](O)c1ccc(O)c3[nH]c(=O)ccc13)C2 [INDACATEROL]

>  <recorded_number>
1

$$$$
>  <compound>
COc1cc2c(NC3CCN(C(C)C)CC3)nc(N3CCC(F)(F)CC3)nc2cc1OCCCN1CCCC1

>  <recorded_number>
3

$$$$
